- target.system: Cholinesterase (Homo sapiens)
- Sequence (P06276 whole entry): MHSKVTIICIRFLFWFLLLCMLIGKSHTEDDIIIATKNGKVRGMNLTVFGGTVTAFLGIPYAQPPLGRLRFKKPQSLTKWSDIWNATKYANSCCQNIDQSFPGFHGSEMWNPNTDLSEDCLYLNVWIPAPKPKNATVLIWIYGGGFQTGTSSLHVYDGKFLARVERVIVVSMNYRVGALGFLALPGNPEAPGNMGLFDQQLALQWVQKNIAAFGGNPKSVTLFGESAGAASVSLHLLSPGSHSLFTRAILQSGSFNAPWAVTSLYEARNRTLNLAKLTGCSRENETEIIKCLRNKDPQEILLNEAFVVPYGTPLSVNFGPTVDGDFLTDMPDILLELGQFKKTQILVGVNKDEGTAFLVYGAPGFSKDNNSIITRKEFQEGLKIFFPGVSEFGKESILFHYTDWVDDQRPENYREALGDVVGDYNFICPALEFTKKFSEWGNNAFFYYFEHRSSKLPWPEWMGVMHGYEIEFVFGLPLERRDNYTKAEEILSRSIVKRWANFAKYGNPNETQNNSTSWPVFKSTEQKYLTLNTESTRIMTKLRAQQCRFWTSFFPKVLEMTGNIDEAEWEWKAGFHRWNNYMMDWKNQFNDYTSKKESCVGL
quantity.kind: IC50 (µM)
Numeric answer only, unit µM assumed.

Previously resolved entries follow.
compound.smiles: COc1ccc2c(c1)C[C@H]1NCCc3cc4c(c-2c31)OCO4
units.symbol: µM
IC50: 68.5

compound.smiles: COc1cc(O)c2c(c1)C[C@@H]1c3c(cc4c(c3-2)OCO4)CCN1C
units.symbol: µM
IC50: 94.5

IN: Requested read-out: IC50. Entry: COc1cc(O)c2c(c1)C[C@H]1NCCc3c(OC)c4c(c-2c31)OCO4
OUT: 141

* * *

# IC50 listing for each entry below
- target.system: Amyloid-beta precursor protein (Homo sapiens, UniProt P05067)
- Sequence (P05067 whole entry): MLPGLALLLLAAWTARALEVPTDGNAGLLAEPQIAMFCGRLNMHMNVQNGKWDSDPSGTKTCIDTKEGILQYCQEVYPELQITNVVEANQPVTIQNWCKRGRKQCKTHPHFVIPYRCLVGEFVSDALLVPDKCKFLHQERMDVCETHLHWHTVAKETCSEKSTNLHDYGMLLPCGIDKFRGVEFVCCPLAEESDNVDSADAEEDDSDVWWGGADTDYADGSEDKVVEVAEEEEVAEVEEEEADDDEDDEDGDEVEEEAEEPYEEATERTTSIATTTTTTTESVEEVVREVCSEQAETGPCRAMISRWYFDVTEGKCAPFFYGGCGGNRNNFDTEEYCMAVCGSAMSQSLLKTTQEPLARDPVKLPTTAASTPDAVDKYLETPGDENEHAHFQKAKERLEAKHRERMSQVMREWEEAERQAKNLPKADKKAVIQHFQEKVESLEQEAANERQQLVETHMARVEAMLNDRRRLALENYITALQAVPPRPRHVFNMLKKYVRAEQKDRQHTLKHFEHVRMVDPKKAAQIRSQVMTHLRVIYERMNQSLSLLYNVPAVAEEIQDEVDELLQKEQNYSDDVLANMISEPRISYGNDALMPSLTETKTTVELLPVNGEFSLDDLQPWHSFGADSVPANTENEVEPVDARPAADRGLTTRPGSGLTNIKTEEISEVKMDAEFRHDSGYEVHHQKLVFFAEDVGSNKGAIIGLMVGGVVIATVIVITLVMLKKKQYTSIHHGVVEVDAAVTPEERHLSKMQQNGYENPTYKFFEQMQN
- procedure.summary: Inhibition of amyloid beta 42 (unknown origin) aggregation incubated for 24 hrs by ThT assay

IN: Requested read-out: IC50. Entry: COc1cc(O)cc2c1-c1c3c(cc4c1[C@@H](C2)N(C)CC4)OCO3
OUT: 35.7 µM

IN: Requested read-out: IC50. Entry: COc1cc2c(cc1O)[C@@H]1Cc3ccc(OC)c(O)c3CN1CC2 [SCOULERINE]
OUT: > 50 µM

IN: Requested read-out: IC50. Entry: COc1cc(O)c2c(c1)C[C@@H]1c3c(cc4c(c3-2)OCO4)CCN1C
OUT: > 50 µM

IN: Requested read-out: IC50. Entry: COc1cc(O)c2c(c1)C[C@H]1NCCc3c(OC)c4c(c-2c31)OCO4
OUT: > 50 µM

IN: Requested read-out: IC50. Entry: COc1cc(O)c2c(c1)C[C@@H]1c3c(cc4c(c3-2)OCO4)CC[N@+]1(C)[O-]
OUT: > 50 µM

IN: Requested read-out: IC50. Entry: COC1=C(CC(=O)CCc2ccccc2)C(=O)O[C@@H]1O
OUT: 26.6 µM

IN: Requested read-out: IC50. Entry: COc1cc(O)c2c(c1)C[C@@H]1c3c(cc4c(c3-2)OCO4)CC[N@@+]1(C)[O-]
OUT: > 50 µM

IN: Requested read-out: IC50. Entry: COC1=CC(=O)c2c(cc3c4c(cc5c(c24)OCO5)CCN3C)C1=O
OUT: > 50 µM

IN: Requested read-out: IC50. Entry: COc1cc(O)c2c(c1)C[C@H]1NCCc3cc4c(c-2c31)OCO4
OUT: > 50 µM

IN: Requested read-out: IC50. Entry: COc1cc2c(cc1OC)[C@@H]1Cc3ccc(O)c(OC)c3CN1CC2
OUT: > 50 µM
